- system_tested: HIV-1 Env of isolate 92WR024 (pseudovirus) (HIV-1)
- assay_comment: cell-based or functional assay
endpoint_label: IC50 (µg/mL), pseudovirus neutralization

Exercise: # get_value(readout='IC50 (µg/mL), pseudovirus neutralization', item= PGT-126 (5141_B17) (antibody, V domains shown) VH: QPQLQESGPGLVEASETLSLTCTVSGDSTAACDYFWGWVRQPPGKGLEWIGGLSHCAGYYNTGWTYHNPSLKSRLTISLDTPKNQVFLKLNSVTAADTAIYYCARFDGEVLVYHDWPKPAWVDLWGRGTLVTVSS VL: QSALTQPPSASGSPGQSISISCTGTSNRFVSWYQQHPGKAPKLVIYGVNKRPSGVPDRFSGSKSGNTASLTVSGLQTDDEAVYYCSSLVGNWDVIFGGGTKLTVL )
Key: 42 µg/mL

Exercise: # get_value(readout='IC50 (µg/mL), pseudovirus neutralization', item= PGT-125 (5123_A06) (antibody, V domains shown) VH: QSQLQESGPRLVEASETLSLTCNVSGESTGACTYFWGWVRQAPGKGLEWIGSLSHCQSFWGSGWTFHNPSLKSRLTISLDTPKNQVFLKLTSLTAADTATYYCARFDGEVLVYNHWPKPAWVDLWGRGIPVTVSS VL: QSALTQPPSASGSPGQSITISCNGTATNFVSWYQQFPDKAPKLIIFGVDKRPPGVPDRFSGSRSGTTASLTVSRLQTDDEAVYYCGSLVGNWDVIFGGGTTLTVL )
Key: 35.5 µg/mL

Exercise: # get_value(readout='IC50 (µg/mL), pseudovirus neutralization', item= PGT-123 (4858_P08) (antibody, V domains shown) VH: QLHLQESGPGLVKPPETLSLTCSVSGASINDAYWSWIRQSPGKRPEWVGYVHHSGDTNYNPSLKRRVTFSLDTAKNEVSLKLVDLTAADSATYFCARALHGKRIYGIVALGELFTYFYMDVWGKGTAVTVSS VL: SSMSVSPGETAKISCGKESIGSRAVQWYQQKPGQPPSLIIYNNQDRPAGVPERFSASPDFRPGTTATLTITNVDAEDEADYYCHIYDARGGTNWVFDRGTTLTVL )
Key: > 50 µg/mL

Exercise: # get_value(readout='IC50 (µg/mL), pseudovirus neutralization', item= PGT-127 (5145_B14) (antibody, V domains shown) VH: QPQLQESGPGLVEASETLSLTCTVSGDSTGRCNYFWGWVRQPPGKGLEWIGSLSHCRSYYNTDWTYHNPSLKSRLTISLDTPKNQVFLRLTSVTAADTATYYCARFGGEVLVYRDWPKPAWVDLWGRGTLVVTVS VL: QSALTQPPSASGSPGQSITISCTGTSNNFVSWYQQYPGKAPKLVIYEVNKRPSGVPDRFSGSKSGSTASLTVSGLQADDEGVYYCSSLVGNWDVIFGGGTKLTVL )
Key: > 50 µg/mL
